# test: Volume of distribution in cynomolgus monkey at 1.8 mg/kg, iv or 1.6 mg/kg, po
# Type: ADME, organism-based, Macaca fascicularis
# condition-parameters: in vivo, read-out: Vdss
measurement-label: Vd (L/kg)
Output spec: scalar in L/kg, unitless text.

Input line: Specify Vd for O=c1c(C2=NS(=O)(=O)c3ccccc3N2)c(O)c2ccccc2n1CCC1CC1 and stop.
Output line: 0.19

---

# test: Half life in cynomolgus monkey at 1.0 mg/kg, iv or 3.6 mg/kg, po
# Assay type: ADME, organism-based, Macaca fascicularis
# condition-parameters: in vivo
measurement-label: half-life

Input line: Read off the recorded half-life for Cc1ccc2c(c1)c(O)c(C1=NS(=O)(=O)c3ccccc3N1)c(=O)n2CCC(C)C
Output line: 49.7 min
